Where do these numbers come from? They come from PubChem BioAssay (NCI).

# Tested on: SF-539 CNS
# procedure-details: NCI tumour cell line growth inhibition, 48 h; in the data active = GI50 below about 0.43 µM; inactive = the rest
Reply using exactly one outcome from active, inactive

# example entries with known answers
molecule: Cn1c(C(=O)c2cccc3ccccc23)nc2ccccc21
system-under-test: SF-539 CNS
discrete-label: inactive
--
molecule: COc1ccc2c(c1)C(=O)c1c-2c(=O)n(CCCN(C)C)c2cc(OC)c(OC)cc12
system-under-test: SF-539 CNS
discrete-label: inactive
--
molecule: COC1=C(OC)[C@]2(OC)c3c(O)c(OC)c4c(c3O[C@@]23O[C@@H](c2ccccc2)CC=C3C1=O)[C@@H](OC)C[C@H](c1ccccc1)O4
system-under-test: SF-539 CNS
discrete-label: active
--
molecule: C=CCN(CC=C)C(=O)[C@H](CC)[C@@H]1CC[C@@H](C)[C@@H]([C@H](C)[C@@H](O)[C@@H](C)C(=O)[C@H](CC)C2O[C@]3(C=C[C@@H](O)[C@]4(CC[C@@](C)([C@H]5CC[C@](O)(CC)[C@H](C)O5)O4)O3)[C@H](C)C[C@@H]2C)O1 (some centres undefined)
system-under-test: SF-539 CNS
discrete-label: inactive
--
molecule: Clc1nc(Cl)c2ncn(CCOCCn3cnc4c(Cl)nc(Cl)nc43)c2n1
system-under-test: SF-539 CNS
discrete-label: active

## Input Can you look up the reported call for Cc1ccc(Cl)cc1-n1c(C)nc2c(cnn2-c2ccnc3c(C(F)(F)F)cccc23)c1=O for me?
## Output inactive

## Input Can you look up the reported call for N#Cc1c(NC(=O)c2ccccc2F)sc2c1CCCC2 for me?
## Output inactive

## Input Can you look up the reported call for O=C(c1cc(Cc2n[nH]c(=O)c3ccccc23)ccc1F)N1CCN(C(=O)C2CC2)CC1 for me?
## Output inactive

## Input Can you look up the reported call for Fc1ccc2nc(-c3nc(-c4ccccc4)n4ccccc34)[nH]c2c1 for me?
## Output inactive

* * *

# Tested on: HL-60(TB) leukemia
# procedure-details: NCI tumour cell line growth inhibition, 48 h
measured-parameter: TGI

Worked set:
compound: O=C(O)CCCc1ccccc1
result-value: > 1000 µM
//
compound: COc1ccc(S(=O)(=O)N2CCNCC2)cc1OC
result-value: > 100 µM
//
compound: CCOC(=O)C(CCCNC(=O)OC(C)(C)C)N(Cc1ccc(OC)cc1OC)C(=O)CC(=O)CP(=O)(OCC)OCC (stereo not given)
result-value: > 100 µM
//
compound: N#CC1C(N)=NNC12Nc1ccccc1S2 (stereo not given)
result-value: > 100 µM
//
compound: COc1ccc2nc3cc(Cl)ccc3c(N3CCN(c4ccnc(N5CCN(C)CC5)n4)CC3)c2c1
result-value: 5.03 µM

Next item in the queue.
## Input Name the recorded TGI of the compound listed here: Fc1ccc2nc(-c3nc(-c4ccccc4)n4ccccc34)[nH]c2c1
## Output > 100 µM

* * *

The entries below are paired with their reported TGI.
# System: TK-10 renal
# procedure-details: NCI tumour cell line growth inhibition, 48 h

Worked set:
smiles-notation: COC(=O)c1cc([N+](=O)[O-])cc([N+](=O)[O-])c1Cl
TGI: 6.48 µM

smiles-notation: C[C@H]1C[C@H]2[C@@H]3CCC4=CC(=O)C=C[C@]4(C)C3=CC[C@]2(C)[C@@]1(O)C(=O)CO
TGI: > 100 µM

smiles-notation: COc1ccc2c(c1)C(=O)c1c-2c(=O)n(CCCN(C)C)c2cc(OC)c(OC)cc12
TGI: 29.3 µM

## Input Name the recorded TGI of the compound listed here: CC1=NNC(=S)NCCCN2CCN(CCCNC(=S)NN=C(C)C=NNC(=S)NCCCN3CCN(CCCNC(=S)NN=C1)CC3)CC2
## Output > 100 µM
